test system: progranulin (PGRN) secretion, BV-2 cells; assay: PGRN assay: progranulin induction cellular assay (ELISA of secreted mouse PGRN); type: cell-based; conditions: Mus musculus, BV-2, PGRN assay, Table D; secreted mouse PGRN in cell culture medium, ELISA
pEC50: −log10 of the molar value. Structures can show the parent of a compound that is named as a salt.

COMPOUND | SYSTEM_TESTED | QUAL | pEC50
O=C(N[C@@H]1CNCC12CC2)N1CCc2ccccc2[C@@H]1c1ccc(F)cc1 [Compound 2281] | progranulin (PGRN) secretion, BV-2 cells | = | 6.56
CN(C)[C@@H]1CCN(C(=O)N2CCc3ccccc3[C@@H]2c2ccc(F)cc2)C1 [Compound 2312] | progranulin (PGRN) secretion, BV-2 cells | = | 6.01
CC1(C)CNC[C@H]1OC(=O)N1CCc2ccccc2[C@@H]1c1ccc(F)cc1 [Compound 2292] | progranulin (PGRN) secretion, BV-2 cells | = | 6.37
CN1CC[C@H](NC(=O)N2CCc3ccccc3[C@@H]2c2ccc(F)cc2)C1 [Compound 2237] | progranulin (PGRN) secretion, BV-2 cells | = | 6.37
CN1CCN(C(=O)N2CCc3ccccc3[C@@H]2c2ccc(F)cc2)CC(F)(F)C1 [Compound 2261, hydrochloride] | progranulin (PGRN) secretion, BV-2 cells | < | 5.00
CN(C(=O)N1CCc2ccccc2[C@H]1c1ccc(F)cc1)[C@@H]1CCCNC1 (single isomer, unassigned) [Compound 2212] | progranulin (PGRN) secretion, BV-2 cells | = | 5.52
CC1(C)CNC[C@H]1NC(=O)N1CCc2ccccc2[C@@H]1c1ccc(F)cc1 [Compound 2273] | progranulin (PGRN) secretion, BV-2 cells | = | 6.50
O=C(N1CCN2CCC1CC2)N1CCc2ccccc2[C@@H]1c1ccc(F)cc1 [Compound 2252] | progranulin (PGRN) secretion, BV-2 cells | = | 6.92
NC[C@@H]1CCN(C(=O)N2CCc3ccccc3[C@@H]2c2ccc(F)cc2)C1 [Compound 2279] | progranulin (PGRN) secretion, BV-2 cells | = | 6.37
O=C(O[C@H]1C[N@]2CC[C@H]1C2)N1CCc2ccccc2[C@@H]1c1ccc(F)cc1 [Compound 2204] | progranulin (PGRN) secretion, BV-2 cells | = | 6.19
O=C(O[C@@H]1CNC[C@H]1F)N1CCc2ccccc2[C@@H]1c1ccc(F)cc1 [Compound 2349] | progranulin (PGRN) secretion, BV-2 cells | = | 6.46
O=C(NCC1CNC1)N1CCc2ccccc2[C@@H]1c1ccc(F)cc1 [Compound 2257, acetate] | progranulin (PGRN) secretion, BV-2 cells | = | 6.26
O=C(O[C@H]1CNCC12CC2)N1CCc2ccccc2[C@@H]1c1ccc(F)cc1 (stereo in doubt) [Compound 2309] | progranulin (PGRN) secretion, BV-2 cells | = | 6.22
N[C@H]1CCN(C(=O)N2CCc3ccccc3[C@@H]2c2ccc(F)cc2)C1 [Compound 2284] | progranulin (PGRN) secretion, BV-2 cells | = | 6.09
O=C(OC[C@H]1CCN1)N1CCc2ccccc2[C@@H]1c1ccc(F)cc1 [Compound 2240] | progranulin (PGRN) secretion, BV-2 cells | = | 5.62
CN1CCC(OC2(C(=O)N3CCc4ccccc4[C@@H]3c3ccc(F)cc3)CC2)CC1 [Compound 2247] | progranulin (PGRN) secretion, BV-2 cells | < | 5.00
O=C(OCC1CNC1)N1CCc2ccccc2[C@@H]1c1ccc(F)cc1 [Compound 2246, 2,2,2-trifluoroacetate] | progranulin (PGRN) secretion, BV-2 cells | = | 6.11
N[C@@H]1CCN(C(=O)N2CCc3ccccc3[C@H]2c2ccc(F)cc2)C1 [Compound 2286] | progranulin (PGRN) secretion, BV-2 cells | = | 5.55
O=C(N[C@@H]1CNCC1(F)F)N1CCc2ccccc2[C@@H]1c1ccc(F)cc1 (stereo in doubt) [Compound 2244] | progranulin (PGRN) secretion, BV-2 cells | = | 5.49
CN1CCC(C2(OC(=O)N3CCc4ccccc4[C@@H]3c3ccc(F)cc3)CC2)CC1 [Compound 2215] | progranulin (PGRN) secretion, BV-2 cells | = | 5.57
CN(C)C1CCN(C(=O)N2CCc3ccccc3[C@@H]2c2ccc(F)cc2)C1 (stereo in doubt) [Compound 2311] | progranulin (PGRN) secretion, BV-2 cells | = | 5.88
CN1[C@H]2CC[C@@H]1[C@@H](NC(=O)N1CCc3ccccc3[C@@H]1c1ccc(F)cc1)C2 [Compound 2226] | progranulin (PGRN) secretion, BV-2 cells | = | 5.57
O=C(N[C@H]1CCNC1)N1CCc2ccccc2[C@@H]1c1ccc(F)cc1 [Compound 2222] | progranulin (PGRN) secretion, BV-2 cells | = | 6.03
CN(CC1CNC1)C(=O)N1CCc2ccccc2[C@@H]1c1ccc(F)cc1 [Compound 2283] | progranulin (PGRN) secretion, BV-2 cells | < | 5.00
O=C(NC[C@@H]1CCCNC1)N1CCc2ccccc2[C@@H]1c1ccc(F)cc1 [Compound 2221] | progranulin (PGRN) secretion, BV-2 cells | = | 5.11
CN(C(=O)N1CCc2ccccc2[C@@H]1c1ccc(F)cc1)[C@@H]1CNCC1(F)F [Compound 2296] | progranulin (PGRN) secretion, BV-2 cells | = | 5.40
CN1CC[C@@H](N(C)C(=O)N2CCc3ccccc3[C@@H]2c2ccc(F)cc2)C1 [Compound 2265] | progranulin (PGRN) secretion, BV-2 cells | = | 6.54
O=C(NC1(C2CCNCC2)CC1)N1CCc2ccccc2[C@@H]1c1ccc(F)cc1 [Compound 2208] | progranulin (PGRN) secretion, BV-2 cells | = | 5.14
CN1[C@@H]2CC[C@H]1[C@H](NC(=O)N1CCc3ccccc3[C@@H]1c1ccc(F)cc1)C2 [Compound 2227] | progranulin (PGRN) secretion, BV-2 cells | = | 5.38
CN(C(=O)N1CCc2ccccc2[C@@H]1c1ccc(F)cc1)[C@H]1CCNC1 [Compound 2248] | progranulin (PGRN) secretion, BV-2 cells | = | 5.91
O=C(NC[C@H]1CCCN1)N1CCc2ccccc2[C@@H]1c1ccc(F)cc1 [Compound 2216] | progranulin (PGRN) secretion, BV-2 cells | = | 5.57
CN1C[C@H](NC(=O)N2CCc3ccccc3[C@H]2c2ccc(F)cc2)C2(CC2)C1 [Compound 2316] | progranulin (PGRN) secretion, BV-2 cells | = | 6.34

----------
system: progranulin (PGRN) secretion, BV-2 cells; experiment: PGRN assay: progranulin induction cellular assay (ELISA of secreted mouse PGRN); format: cell-based; details: Mus musculus, BV-2, PGRN assay, Table D; secreted mouse PGRN in cell culture medium, ELISA
So basically: is EC50 under 1000 nM? Then Criterion met. Not under? Then Criterion not met.

MOLECULE | CATEGORY
CN1CCC(C(=O)C(=O)N2CCc3ccccc3[C@@H]2c2ccc(F)cc2)C1 (stereo partly shown) | Criterion not met
O=C(OC[C@@H]1CCNC1)N1CCc2ccccc2[C@@H]1c1ccc(F)cc1 | Criterion not met
O=C(N1CC[C@]2(CNCCO2)C1)N1CCc2ccccc2[C@H]1c1ccc(F)cc1 (single isomer, unassigned) | Criterion not met
O=C(N1CC[C@@]2(CNCCO2)C1)N1CCc2ccccc2[C@@H]1c1ccc(F)cc1 (single isomer, unassigned) | Criterion met
CN(C(=O)N1CCc2ccccc2[C@@H]1c1ccc(F)cc1)[C@H]1CNCC1(F)F | Criterion not met
CN1CC[C@H](OC(=O)N2CCc3ccccc3[C@@H]2c2ccc(F)cc2)C1 | Criterion met
CNC[C@H]1CN(C(=O)N2CCc3ccccc3[C@@H]2c2ccc(F)cc2)CCO1 | Criterion met

----------
Test system: progranulin (PGRN) secretion, BV-2 cells
Assay: PGRN assay: progranulin induction cellular assay (ELISA of secreted mouse PGRN)
Format: cell-based
Conditions: Mus musculus, BV-2, PGRN assay, Table D; secreted mouse PGRN in cell culture medium, ELISA
Procedure: Cellular Assays: To measure the efficacy of compounds, a progranulin induction cellular assay in mouse primary microglia (pMG), primary cortical neurons, and BV-2 cell lines is used. BV-2 cells are split the day before plating into a 96 well plate format at approximately 80%. Cells should be plated the day before and allowed for 1 hour attachment period and for 16 hour incubation. […] Standard ELISA kits to measure PGRN are available from vendors such as Adipogen, R&D, and Biovendor.
pEC50: −log10 of the molar value. Counter-ions that a name gives are not always drawn.
Response key: yes (1) means pEC50 >= 6; no (0) means pEC50 < 6.

COMPOUND | CATEGORY
CN1CC[C@@H](OC(=O)N2CCc3ccccc3[C@@H]2c2ccc(F)cc2)C1 [Compound 2250, hydrochloride] | yes (1)
N[C@H]1CCN(C(=O)N2CCc3ccccc3[C@H]2c2ccc(F)cc2)C1 (single isomer, unassigned) | no (0)
O=C(OC[C@@]1(F)CCNC1)N1CCc2ccccc2[C@@H]1c1ccc(F)cc1 (single isomer, unassigned) | yes (1)
O=C(N1CC[C@@]2(CNCCO2)C1)N1CCc2ccccc2[C@H]1c1ccc(F)cc1 (single isomer, unassigned) | no (0)
O=C(O[C@H]1CNC[C@H]1F)N1CCc2ccccc2[C@@H]1c1ccc(F)cc1 | no (0)
CN1C[C@@H](NC(=O)N2CCc3ccccc3[C@@H]2c2ccc(F)cc2)C(F)(F)C1 | no (0)
O=C(O[C@@H]1CNCC1(F)F)N1CCc2ccccc2[C@@H]1c1ccc(F)cc1 | no (0)
O=C(O[C@@H]1CCNC1)N1CCc2ccccc2[C@H]1c1ccc(F)cc1 | yes (1)
CN(C)C[C@@H]1CCN(C(=O)N2CCc3ccccc3[C@@H]2c2ccc(F)cc2)C1 | no (0)

Cited source: patent US20220251084A1
